# Target Desc: rTRPV4 (Rattus norvegicus)
# Construct: expressed in transfected cells; host or cells: HEK-293
# Experiment Summary: TRPV4 calcium influx assay (Fluo-4) in HEK-293 cells overexpressing rat recombinant TRPV4
# Type: cell-based
Quantity Kind: pEC50
Please report pEC50 as the negative decimal logarithm of the molar concentration, giving only the number.

Qu. Using the record for CC(C)C[C@H](NC(=O)c1cc2ccccc2s1)C(=O)N1CCN(C(=O)[C@H](CO)NS(=O)(=O)c2ccc(Cl)cc2Cl)CC1 [GSK1016790A, reference compound] , report its pEC50.
Ans. 8.46

====

# Target Desc: rTRPV4 (Rattus norvegicus, UniProt Q9ERZ8)
# Sequence (Q9ERZ8 whole entry): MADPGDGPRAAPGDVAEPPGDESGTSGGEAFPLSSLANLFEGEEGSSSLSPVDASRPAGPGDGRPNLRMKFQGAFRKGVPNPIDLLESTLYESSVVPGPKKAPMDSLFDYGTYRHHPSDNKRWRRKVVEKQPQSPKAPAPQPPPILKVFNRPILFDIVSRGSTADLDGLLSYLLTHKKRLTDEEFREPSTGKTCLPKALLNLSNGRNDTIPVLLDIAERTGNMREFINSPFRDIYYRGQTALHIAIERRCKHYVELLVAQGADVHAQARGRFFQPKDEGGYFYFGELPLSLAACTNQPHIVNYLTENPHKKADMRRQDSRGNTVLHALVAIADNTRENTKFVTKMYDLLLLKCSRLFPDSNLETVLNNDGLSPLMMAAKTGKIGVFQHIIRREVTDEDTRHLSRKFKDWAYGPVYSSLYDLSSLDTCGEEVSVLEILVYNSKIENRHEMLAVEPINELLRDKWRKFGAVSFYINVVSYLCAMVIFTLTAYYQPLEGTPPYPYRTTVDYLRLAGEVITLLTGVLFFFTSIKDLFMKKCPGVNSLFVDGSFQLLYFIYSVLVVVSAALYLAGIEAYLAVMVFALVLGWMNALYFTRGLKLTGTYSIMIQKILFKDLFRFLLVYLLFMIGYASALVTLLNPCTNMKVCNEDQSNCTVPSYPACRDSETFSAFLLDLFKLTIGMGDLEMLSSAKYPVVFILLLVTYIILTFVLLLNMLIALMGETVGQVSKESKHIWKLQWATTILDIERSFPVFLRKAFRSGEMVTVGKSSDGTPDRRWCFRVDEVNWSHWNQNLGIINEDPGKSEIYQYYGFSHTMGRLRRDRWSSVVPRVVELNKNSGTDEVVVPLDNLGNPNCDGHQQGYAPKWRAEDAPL
# Experiment Summary: TRPV4 calcium influx assay (Fluo-4) in HEK-293 cells overexpressing rat recombinant TRPV4
# Condition Description: against the effect of GSK1016790A (10 nM) after a 5-min pre-incubation; read-out: IC50 inh. TRPV4
Quantity Kind: IC50 (µM)

Previously resolved entries follow.
- Compound: "CC1(C)CCC[C@]2(C)[C@@H](CC(=O)NCCc3ccc(Cl)cc3)[C@](C)(O)CC[C@@H]12 [Compound 11]"
  Obs Value: 7
- Compound: "CC1(C)CCC[C@]2(C)[C@@H](CC(=O)NCCc3ccccc3)[C@](C)(O)CC[C@@H]12 [Compound 10]"
  Obs Value: 15.6
- Compound: "CC1(C)CCC[C@]2(C)[C@@H](CC(=O)NCc3ccco3)[C@](C)(O)CC[C@@H]12 [Compound 14]"
  Obs Value: 53.5

[A] COc1ccc(CNC(=O)C[C@@H]2[C@@]3(C)CCCC(C)(C)[C@@H]3CC[C@@]2(C)O)cc1 [Compound 8]
[B] CC1(C)CCC[C@]2(C)[C@@H](CC(=O)Nc3ccccc3-n3cccc3)[C@](C)(O)CC[C@@H]12 [Compound 3]
Qu. Lab note: check whether A or B shows the higher recorded IC50. Kindly give the label for the entry you pick.
Ans. A
